src = paper PMC6271085

system: MDAMB-435 cells; experiment: MTT cytotoxicity assay, MDAMB-435; assay type: cell-based; details: Homo sapiens, MDA-MB-435; MDAMB-435, 5 µg/mL, 72 h, MTT; read-out: Percentage of inhibition of cell growth (GI%), average
reported property: inhibition at 5 µg/mL (%)
# unit: % | format: bare number

Field request: inhibition at 5 µg/mL | item: O=C1C=C(N2CCC[C@H]2C(=O)O)C(=O)c2ccccc21
36.7

Field request: inhibition at 5 µg/mL | item: CCOC(=O)CCCNC1=CC(=O)c2ccccc2C1=O
59.1

Field request: inhibition at 5 µg/mL | item: C[C@H](NC1=CC(=O)c2ccccc2C1=O)C(=O)O
100

Field request: inhibition at 5 µg/mL | item: O=C1C=C(N[C@@H](Cc2ccccc2)C(=O)O)C(=O)c2ccccc21
100

Field request: inhibition at 5 µg/mL | item: O=C(O)CCCNC1=CC(=O)c2ccccc2C1=O
11.1

Field request: inhibition at 5 µg/mL | item: CCOC(=O)CNC1=CC(=O)c2ccccc2C1=O
100

Field request: inhibition at 5 µg/mL | item: CCOC(=O)[C@H](C)NC1=CC(=O)c2ccccc2C1=O
100

Field request: inhibition at 5 µg/mL | item: O=C(O)CCNC1=CC(=O)c2ccccc2C1=O
26.4

Field request: inhibition at 5 µg/mL | item: CCOC(=O)CCNC1=CC(=O)c2ccccc2C1=O
11.7

Field request: inhibition at 5 µg/mL | item: O=C(O)CNC1=CC(=O)c2ccccc2C1=O
100

---

reported property: melting point

Field request: melting point | item: CCOC(=O)CCNC1=CC(=O)c2ccccc2C1=O [compound 8]
120 to 122 °C

Field request: melting point | item: O=C(O)CCNC1=CC(=O)c2ccccc2C1=O [compound 3]
198 to 200 °C

Field request: melting point | item: O=C1C=C(N2CCC[C@H]2C(=O)O)C(=O)c2ccccc21 [compound 4]
164 to 167 °C (dec.)

Field request: melting point | item: CCOC(=O)[C@H](C)NC1=CC(=O)c2ccccc2C1=O [compound 9]
65 to 68 °C

Field request: melting point | item: CCOC(=O)CNC1=CC(=O)c2ccccc2C1=O [compound 7]
93 to 95 °C
